IC50 for assorted molecules
# MEASURED_ON: Protein skinhead-1 (Caenorhabditis elegans, UniProt P34707)
# Sequence (P34707 whole entry): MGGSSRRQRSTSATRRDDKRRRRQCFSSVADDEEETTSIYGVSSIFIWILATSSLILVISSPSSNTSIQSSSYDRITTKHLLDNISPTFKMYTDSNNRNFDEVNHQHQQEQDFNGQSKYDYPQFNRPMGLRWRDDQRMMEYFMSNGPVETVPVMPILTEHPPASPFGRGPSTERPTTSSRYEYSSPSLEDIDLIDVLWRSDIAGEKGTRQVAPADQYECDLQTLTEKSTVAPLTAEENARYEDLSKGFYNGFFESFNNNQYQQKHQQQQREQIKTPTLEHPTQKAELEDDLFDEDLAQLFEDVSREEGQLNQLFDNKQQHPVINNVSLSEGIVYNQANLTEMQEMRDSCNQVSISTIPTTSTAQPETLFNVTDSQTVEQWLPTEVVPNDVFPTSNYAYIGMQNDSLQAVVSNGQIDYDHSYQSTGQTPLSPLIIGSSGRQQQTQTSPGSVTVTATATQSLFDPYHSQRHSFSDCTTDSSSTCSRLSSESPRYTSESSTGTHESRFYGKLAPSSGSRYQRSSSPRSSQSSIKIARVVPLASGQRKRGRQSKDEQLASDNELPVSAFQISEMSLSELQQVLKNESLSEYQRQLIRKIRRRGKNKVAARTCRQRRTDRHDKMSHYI
# Type: functional
Activity calls are given as the source filed them.
MEASURE: IC50

MOLECULE: CCOc1ccc(-c2nnc(-c3cccs3)o2)cc1
RESULT: > 100 µM (inactive)

MOLECULE: OCCN(CCO)c1ccc(C(c2ccccc2Cl)c2ccc(N(CCO)CCO)cc2Cl)c(Cl)c1
RESULT: > 100 µM (inactive)

MOLECULE: CCCOc1ccc(C(=O)Nc2ccc(Cl)cn2)cc1
RESULT: 100 µM (inactive)

MOLECULE: c1ccc(-c2noc(-c3ccc4ccccc4c3)n2)nc1
RESULT: > 100 µM (inactive)

MOLECULE: Clc1ccccc1-c1ccc(CN2CCN(c3ccccc3)CC2)o1
RESULT: > 100 µM (inactive)

MOLECULE: CCc1ccc(-c2nn(-c3cc(Cl)ccc3[N+](=O)[O-])c(=O)c3ccccc23)cc1
RESULT: > 100 µM (inactive)

MOLECULE: COCCn1cc(C(=O)NCc2cccs2)c2c3ccccc3n(C)c2c1=O
RESULT: > 100 µM (inactive)

MOLECULE: CNS(=O)(=O)c1ccc2c(c1)nc(S)n2C
RESULT: > 100 µM (inactive)

MOLECULE: CC(C)C(OC(=O)C1=Cc2ccccc2OC1)C(=O)NC1CCCC1 (centres undefined)
RESULT: > 100 µM (inactive)
